- Tested on: Caco-2
- assayComment: Cytotoxicity by MTT assay
- Assay type: cell-based, human
IC50 values, listed per item
valueKind: IC50 (µM)

INSERT INTO results (compound, unittext, measured) VALUES
  ('Oc1ccc(O)c2c1C1c3ccccc3C2c2ccccc21', 'µM', 3.7),
  ('CN(C)c1ccc(/C=C/c2cc(C(C)(C)C)[o+]c(C(C)(C)C)c2)cc1', 'µM', 6.8),
  ('Oc1ccc2ccccc2c1C(c1ccc(Cl)cc1)c1c(O)ccc2ccccc12', 'µM', 3.5),
  ('FC(F)(F)c1cccc(N2CCN(CCc3ccccc3)CC2)c1', 'µM', 130),
  ('CC[n+]1c(/C=C/C=C2C=C(/C=C/N(C)c3ccccc3)CC(C)(C)C/2)sc2ccccc21.[I-]', 'µM', 27.9),
  ('COc1ccc(-c2cn(CC(=O)N(c3ccccc3)C(C)C)c3[n+]2CCC3)cc1', 'µM', 340),
  ('CCn1c2ccccc2c2cc(N/C=C(\C#N)c3nc(-c4ccc(C)cc4C)cs3)ccc21', 'µM', 240),
  ('CN(C)c1ccc(C=C2C=C(c3ccccc3)OC(c3ccccc3)=C2)cc1', 'µM', 100),
  ('CCN1C(=O)C(c2ccc(O)cc2)(c2ccc(O)cc2)c2ccccc21', 'µM', 72.1),
  ('OCc1ccc2c(c1)C1c3ccccc3C2c2ccccc21', 'µM', 68),
  ('Cc1cc(C2(c3ccc(O)c(C)c3)C(=O)N(Cc3ccccc3)c3ccccc32)ccc1O', 'µM', 4.4),
  ('CC[n+]1c(/C=C/C=C2C=C(/C=C/N(C(C)=O)c3ccccc3)CC(C)(C)C/2)sc2ccccc21.[I-]', 'µM', 52.7),
  ('CC(C)CCCC(C)C1CCC2C3CC=C4CC(O)CCC4(C)C3CCC12C (stereo not shown)', 'µM', 123),
  ('FC(F)(F)c1cccc(N2CCN(Cc3ccc4c(c3)Cc3ccccc3-4)CC2)c1', 'µM', 159),
  ('CCN(CC)CCCN1CN(CCCN(CC)CC)CN(CCCN(CC)CC)C1 [Compound 000A-0859]', 'µM', 419),
  ('Cc1cc(C2c3ccccc3-c3ccccc32)cc(C)c1O', 'µM', 9.2),
  ('CCN1C(=CC(C)=Cc2sc3ccccc3[n+]2CC)Sc2ccccc21', 'µM', 19),
  ('CC[n+]1c(/C=C2C=C(/C=C/N(C)c3ccccc3)CC(C)(C)C/2)sc2ccccc21', 'µM', 16.7),
  ('OCC(CO)C1c2cccc3ccc4cccc1c4c23', 'µM', 83.8),
  ('CCN(CC)c1ccc(CN2CCN(c3cccc(C(F)(F)F)c3)CC2)cc1', 'µM', 192),
  ('CCN1/C(=C\C=C\c2sc3c4ccccc4[se]c3[n+]2CC)Sc2c1[se]c1ccccc21', 'µM', 9.6),
  ('CCN1C(=CC(C)=Cc2sc3ccc4ccccc4c3[n+]2CC)Sc2ccc3ccccc3c21', 'µM', 2.2);
